# target entity: Cyclin-dependent kinase 1/cyclin B1 (Homo sapiens)
# test method notes: Inhibition of CDK1/Cyclin B
We begin with a simple list: items and their reported IC50.

Ask: Find the measured IC50 of CCSc1nn2c(Cc3ccccc3)nnc2s1 and report it.
Result: > 120 µM

Ask: Find the measured IC50 of CCSc1nn2c(C)nnc2s1 and report it.
Result: > 120 µM

Ask: Find the measured IC50 of NNc1nn2c(Cc3ccccc3)nnc2s1 and report it.
Result: > 120 µM

---

We begin with a simple list: items and their reported pIC50.
# target entity: Cyclin-dependent kinase 1/cyclin B1 (Homo sapiens, UniProt P06493)
# Sequence (P06493 whole entry): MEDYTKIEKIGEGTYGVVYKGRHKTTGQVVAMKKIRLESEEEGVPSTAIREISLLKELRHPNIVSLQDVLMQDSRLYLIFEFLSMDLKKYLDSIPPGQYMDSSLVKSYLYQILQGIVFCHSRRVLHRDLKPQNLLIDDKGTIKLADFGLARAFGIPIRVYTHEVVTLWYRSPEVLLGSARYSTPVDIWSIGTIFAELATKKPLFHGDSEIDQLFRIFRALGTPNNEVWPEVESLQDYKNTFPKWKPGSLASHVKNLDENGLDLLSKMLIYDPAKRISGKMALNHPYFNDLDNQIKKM
# Sequence (P14635 whole entry, further chain): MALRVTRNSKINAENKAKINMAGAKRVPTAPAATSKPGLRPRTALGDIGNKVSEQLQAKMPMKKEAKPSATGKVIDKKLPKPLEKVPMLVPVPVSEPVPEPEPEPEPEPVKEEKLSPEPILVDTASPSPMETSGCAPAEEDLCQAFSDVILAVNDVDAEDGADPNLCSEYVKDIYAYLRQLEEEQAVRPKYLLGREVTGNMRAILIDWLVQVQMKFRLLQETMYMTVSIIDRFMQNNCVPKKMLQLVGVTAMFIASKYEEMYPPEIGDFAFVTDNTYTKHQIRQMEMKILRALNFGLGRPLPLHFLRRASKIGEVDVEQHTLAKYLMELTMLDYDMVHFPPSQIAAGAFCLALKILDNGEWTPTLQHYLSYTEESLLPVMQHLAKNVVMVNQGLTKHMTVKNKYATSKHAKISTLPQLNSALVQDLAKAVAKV
# test method notes: Inhibition of CDK1/Cyclin B
pIC50: −log10 of the molar value.

The examples below pair each entry with its known result.
Ask: Find the measured pIC50 of Nc1ccc(-c2nn3c(Cc4ccccc4)nnc3s2)cc1 and report it.
Result: < 3.92

Ask: Find the measured pIC50 of Clc1ccc(OCc2nnc3sc(SCc4ccccc4)nn23)cc1 and report it.
Result: < 3.92

Ask: Find the measured pIC50 of Nc1nc(O)c(Cc2nn3c(Cc4ccccc4)nnc3s2)s1 and report it.
Result: < 3.92

Shift focus to the following entry.
Ask: Find the measured pIC50 of Cc1nnc2sc(Cc3n[nH]c4[nH]c(=S)[nH]c(=S)c34)nn12 and report it.
Result: < 4.32
